Sourced from patent US20060062761A1

# key: entry, value: pIC50
Target: HLA-DR DRB1*0101 on fixed HOM-2 cells (human)
Assay: competition
Conditions: modification not given
pIC50: −log10 of the molar value.

[[record]]
binder = "KEDSILAVRKYFQRI [38]"
assay_result = "< 3.30"


INPUT: Can you share its pIC50? I mean this binder: VGVTETPLMKEDSIL [35]
OUTPUT: < 3.30

INPUT: I would be grateful if you could share the reported pIC50 for IQGVGVTETPLMKED [34] .
OUTPUT: < 3.30
